# MEASURED TARGET: Adrenergic receptor alpha-1 (Rattus norvegicus, UniProt P15823+P23944+P43140)
# ASSAY METHOD TEXT: Displacement of [3H]prazosin from adrenergic alpha-1 receptor in rat brain membranes
# Format: cell membranes
PROPERTY MEASURED: IC50

Give measured IC50 for every item shown.
1. COc1ccc(CN2CCC(c3cn(Cc4ccoc4)c4cc(F)ccc34)CC2)cc1C(=O)O
2. COCCn1cc(C2CCN(CCOc3ccccc3C(=O)O)CC2)c2ccc(F)cc21
3. COc1ccc(CN2CCC(c3cn(Cc4ccc(Cl)s4)c4cc(F)ccc34)CC2)cc1C(=O)O

1. > 10 µM
2. > 10 µM
3. > 10 µM

Provenance of the data: ChEMBL document CHEMBL1149258
